Where these numbers come from: BigSolDB 2.1

settings: in acetonitrile, 333.15 K
readout name: solubility (mole fraction)
No unit in the answer, please; the number alone is enough.

For the compound CCOc1nc2cccc(C(=O)OC(C)OC(=O)OC3CCCCC3)c2n1Cc1ccc(-c2ccccc2-c2nn[nH]n2)cc1 (stereo unspecified) , what solubility (mole fraction) is on record?
0.00441

---

details: in acetone, 293.15 K
readout name: solubility (mole fraction)
No unit in the answer, please; the number alone is enough.

For the compound CCOc1nc2cccc(C(=O)OC(C)OC(=O)OC3CCCCC3)c2n1Cc1ccc(-c2ccccc2-c2nn[nH]n2)cc1 (stereo unspecified) , what solubility (mole fraction) is on record?
0.00673

---

conditions: in acetone, 313.15 K
readout name: solubility (mole fraction)
No unit in the answer, please; the number alone is enough.

For the compound CCOc1nc2cccc(C(=O)OC(C)OC(=O)OC3CCCCC3)c2n1Cc1ccc(-c2ccccc2-c2nn[nH]n2)cc1 (stereo unspecified) , what solubility (mole fraction) is on record?
0.0133

---

conditions: in acetonitrile, 293.15 K
readout name: solubility (mole fraction)
No unit in the answer, please; the number alone is enough.

For the compound CCOc1nc2cccc(C(=O)OC(C)OC(=O)OC3CCCCC3)c2n1Cc1ccc(-c2ccccc2-c2nn[nH]n2)cc1 (stereo unspecified) , what solubility (mole fraction) is on record?
0.000582

---

settings: in acetonitrile, 303.15 K
readout name: solubility (mole fraction)

For the compound CCOc1nc2cccc(C(=O)OC(C)OC(=O)OC3CCCCC3)c2n1Cc1ccc(-c2ccccc2-c2nn[nH]n2)cc1 (stereo unspecified) , what solubility (mole fraction) is on record?
0.000912
